Below: molecules with pIC50 recorded for human DGAT1 (Homo sapiens) in separate published works.
pIC50: −log10 of the molar value.
metric-name: pIC50

>>> reported_measurement("Cc1nc(N)c2c(n1)OC(C)(C)C(c1ccc([C@H]3CC[C@H](CNC(=O)C(C)(C)O)CC3)cc1)=N2")
"7.00 to 8.00"
>>> reported_measurement("Cc1nc(N)c2c(n1)OC(C)(C)C(c1ccc([C@H]3CC[C@H](CCC(=O)NS(C)(=O)=O)CC3)cc1)=N2")
"> 8.00"
>>> reported_measurement("Cc1nc(N)c2c(n1)OC(C)(C)C(c1ccc(C3CCC(C4(C(=O)O)CC4)CC3)cc1)=N2 (centres unmarked)")
"7.00 to 8.00"
>>> reported_measurement("COc1nn(-c2ccccc2)cc1C(=O)NCCNC(=O)c1ccc(OCC(F)(F)F)nc1")
"6.00 to 7.00"
>>> reported_measurement("CCOc1ccc(C(=O)N2CCCC2CNC(=O)c2cn(-c3ccccc3)nc2C(F)(F)F)cc1 (centres unmarked)")
"5.00 to 6.00"
>>> reported_measurement("CC1(C)Oc2ncnc(N)c2N=C1c1ccc([C@H]2CC[C@H](CCN3CCN(Cc4ccccc4)CC3)CC2)cc1")
"< 7.00"
>>> reported_measurement("CCOc1ccc(C2=Nc3c(N)ncnc3OC2(C)C)cc1")
"< 7.00"
>>> reported_measurement("O=C(Nc1ccc(N2CCN(C(=O)Nc3c(Cl)cc(Cl)cc3Cl)CC2)cc1)c1ccccc1-c1ccc(C(F)(F)F)cc1")
5.74
>>> reported_measurement("COCCN1CCN(C(=O)c2cc(Cl)c(NC(=O)N3CCN(c4ccc(NC(=O)CCCc5ccccc5)cc4)CC3)c(Cl)c2)CC1")
8.38
>>> reported_measurement("CN1CCN(C(=O)[C@H]2CC[C@H](c3ccc(C4=Nc5c(N)ncnc5OC4(C)C)cc3)CC2)CC1")
"< 7.00"
>>> reported_measurement("O=C(Nc1ccc(C2CCN(C(=O)Nc3c(Cl)cccc3Cl)CC2)cc1)C1CSCN1 (centres unmarked)")
5.45
>>> reported_measurement("Cc1nc(C(=O)Nc2ccc(C3CCN(C(=O)Nc4c(Cl)cccc4Cl)CC3)cc2)c(-c2ccc(C(C)C)cc2)s1")
5.93
>>> reported_measurement("CC1CCCN(c2nc(C(F)(F)F)c(C(=O)Nc3ccc(N4CCN(C(=O)C(O)C(F)(F)F)CC4)nc3)o2)C1 (centres unmarked)")
"7.00 to 7.96"
>>> reported_measurement("O=C(Nc1ccc(N2CCCN(C(=O)[C@H](O)c3ccc(F)c(F)c3)CC2)nc1)c1oc(-c2ccccc2)nc1C(F)(F)F")
"7.00 to 7.96"
>>> reported_measurement("CCc1ccccc1NC(=O)N1CCC(c2ccc(NC(=O)c3ccccc3-c3ccc(C(F)(F)F)cc3)cc2)CC1")
5.35
>>> reported_measurement("COc1ccc(CC(=O)Nc2ccc(N3CCN(C(=O)Nc4c(Cl)cc(C[N+]5([O-])CCCC5)cc4Cl)CC3)cc2)cc1")
7.72
>>> reported_measurement("CCCc1c(C(=O)OCC)c(C(=O)OCC)c2c(C3CCCCC3)cc(N3CCOCC3)nn12")
"> 6.30"

* * *

pIC50: −log10 of the molar value.
Below: compounds with pIC50 recorded for human DGAT1 (Homo sapiens) in separate published works.
metric-name: pIC50

>>> reported_measurement("Nc1ncnc2c1N=C(c1ccc(Cl)c(Cl)c1)CO2")
"< 7.00"
>>> reported_measurement("Cc1nc(N)c2c(n1)OC(C)(C)C(c1ccc([C@H]3CC[C@H](CCC(=O)O)CC3)cc1)=N2")
"> 8.00"
>>> reported_measurement("Clc1cccc(Cl)c1-c1nc2ccc(-c3nnc(N4CCCC4)o3)cc2[nH]1")
"< 5.00"
>>> reported_measurement("O=C(Nc1ccc(N2CCN(Cc3ccccc3)C(=O)C2)nc1)c1oc(-c2ccccc2)nc1C(F)(F)F")
"7.00 to 7.96"
